Experiment Summary: Drug metabolism in bile duct-cannulated dog assessed as glucuronide concentration in bile and urine at 0.2 mg/kg, iv up to 24 hrs by LC/MS/MS analysis
Type: ADME, organism-based, Canis lupus familiaris
Set-up: dose 0.2 mg/kg, route intravenous
Applied Conditions: in vivo
Measured Attribute: Fm
# output: bare number, no unit

These recorded examples may help you get a feel for the data.
CC(C(=O)O)c1cccc(C(=O)c2ccccc2)c1 (stereo not drawn) = 0.163
CN(C)CCCN1c2ccccc2CCc2ccccc21.Cl [IMIPRAMINE HYDROCHLORIDE] = 0.005

The record that follows has no Fm shown yet.
Request: What value of Fm has been recorded for this entry: O=C(c1ccc(OCCN2CCCCC2)cc1)c1c(-c2ccc(O)cc2)sc2cc(O)ccc12
Result: 0.196

---

Measured fraction unbound, listed per entry.
Experiment Summary: in vitro
Applied Conditions: rat, plasma
Description: Fraction unbound in rat plasma by ultracentrifugation method
# output: bare number, no unit

Cc1cn([C@H]2C[C@H](N=[N+]=[N-])[C@@H](CO)O2)c(=O)[nH]c1=O = 0.734

Request: What value of fraction unbound has been recorded for this entry: COc1ccc2c(c1)c(CC(=O)O)c(C)n2C(=O)c1ccc(Cl)cc1
Result: 0.004

Request: What value of fraction unbound has been recorded for this entry: O=C([O-])Cc1ccccc1Nc1c(Cl)cccc1Cl.[Na+] [DICLOFENAC SODIUM]
Result: 0.006

Request: What value of fraction unbound has been recorded for this entry: COc1c(C)c2c(c(O)c1C/C=C(\C)CCC(=O)O)C(=O)OC2
Result: 0.004

---

Measured Fm, listed per entry.
Experiment Summary: Drug metabolism in bile duct-cannulated dog assessed as glucuronide concentration in bile and urine at 0.2 mg/kg, iv up to 24 hrs by LC/MS/MS analysis
Format: ADME, organism-based, Canis lupus familiaris
Set-up: dose 0.2 mg/kg, route intravenous
Applied Conditions: in vivo
# output: bare number, no unit

O=C1Nc2ccc(Cl)cc2C(c2ccccc2Cl)=NC1O (centres undefined) = 0.785
NS(=O)(=O)c1cc(C(=O)O)c(NCc2ccco2)cc1Cl [FUROSEMIDE] = 0.17

Request: What value of Fm has been recorded for this entry: C[C@H]1COc2c(N3CCN(C)CC3)c(F)cc3c(=O)c(C(=O)O)cn1c23.Cl [LEVOFLOXACIN HYDROCHLORIDE]
Result: 0.061

Request: What value of Fm has been recorded for this entry: O=C([O-])Cc1ccccc1Nc1c(Cl)cccc1Cl.[Na+] [DICLOFENAC SODIUM]
Result: 0.522

Request: What value of Fm has been recorded for this entry: CCCc1nc2c(C)cc(-c3nc4ccccc4n3C)cc2n1Cc1ccc(-c2ccccc2C(=O)O)cc1
Result: 0.99

Request: What value of Fm has been recorded for this entry: Cc1cn([C@H]2C[C@H](N=[N+]=[N-])[C@@H](CO)O2)c(=O)[nH]c1=O
Result: 0.134

Request: What value of Fm has been recorded for this entry: Cc1ccc(C)c(OCCCC(C)(C)C(=O)O)c1
Result: 0.69

Request: What value of Fm has been recorded for this entry: COc1c(C)c2c(c(O)c1C/C=C(\C)CCC(=O)O)C(=O)OC2
Result: 0.99

Request: What value of Fm has been recorded for this entry: COc1ccc2c(c1)c(CC(=O)O)c(C)n2C(=O)c1ccc(Cl)cc1
Result: 0.01
